- Target Entity: KDR kinase (Homo sapiens)
- Construct: purchased Carna 08-191
- Sequence (P35968 20-1356): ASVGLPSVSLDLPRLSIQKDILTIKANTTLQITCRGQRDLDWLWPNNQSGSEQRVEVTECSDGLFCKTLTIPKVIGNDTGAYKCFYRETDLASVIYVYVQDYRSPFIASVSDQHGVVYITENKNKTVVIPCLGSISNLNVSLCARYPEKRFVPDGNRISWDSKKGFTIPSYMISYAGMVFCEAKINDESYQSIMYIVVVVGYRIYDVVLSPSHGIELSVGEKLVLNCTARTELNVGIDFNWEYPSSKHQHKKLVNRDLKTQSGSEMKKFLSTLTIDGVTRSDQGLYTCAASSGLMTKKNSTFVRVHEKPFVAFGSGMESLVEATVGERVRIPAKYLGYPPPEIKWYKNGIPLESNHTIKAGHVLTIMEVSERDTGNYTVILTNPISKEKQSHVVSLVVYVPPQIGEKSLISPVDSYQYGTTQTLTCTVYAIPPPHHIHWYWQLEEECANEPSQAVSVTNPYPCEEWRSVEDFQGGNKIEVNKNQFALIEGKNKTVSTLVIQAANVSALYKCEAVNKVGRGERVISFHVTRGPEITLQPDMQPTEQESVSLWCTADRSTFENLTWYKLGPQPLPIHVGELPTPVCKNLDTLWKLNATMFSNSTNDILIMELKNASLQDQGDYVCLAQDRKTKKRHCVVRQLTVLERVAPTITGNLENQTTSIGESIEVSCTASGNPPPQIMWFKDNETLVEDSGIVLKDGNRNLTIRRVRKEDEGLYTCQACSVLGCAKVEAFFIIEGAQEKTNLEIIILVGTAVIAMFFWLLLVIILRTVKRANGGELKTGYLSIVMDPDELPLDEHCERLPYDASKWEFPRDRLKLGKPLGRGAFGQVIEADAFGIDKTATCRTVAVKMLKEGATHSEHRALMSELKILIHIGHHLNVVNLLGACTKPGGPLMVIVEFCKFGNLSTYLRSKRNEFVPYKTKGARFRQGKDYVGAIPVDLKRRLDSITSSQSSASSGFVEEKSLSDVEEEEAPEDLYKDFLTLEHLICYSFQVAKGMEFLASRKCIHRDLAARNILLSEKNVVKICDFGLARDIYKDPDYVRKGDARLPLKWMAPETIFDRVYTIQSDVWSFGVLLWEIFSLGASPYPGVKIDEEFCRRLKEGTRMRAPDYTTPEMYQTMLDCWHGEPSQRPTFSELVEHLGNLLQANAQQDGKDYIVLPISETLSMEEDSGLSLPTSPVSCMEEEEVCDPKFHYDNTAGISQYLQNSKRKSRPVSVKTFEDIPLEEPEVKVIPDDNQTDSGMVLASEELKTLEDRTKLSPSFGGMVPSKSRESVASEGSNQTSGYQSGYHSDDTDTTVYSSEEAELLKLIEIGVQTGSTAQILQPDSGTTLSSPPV
- Test Summary: HTRF kinase assay, KDR
- Assay type: biochemical
- Condition Summary: KDR IC50 / RET IC50

{"Compound": "CC(C)(O)COc1cc(-c2ccc(N3CCC(N)(C(=O)N4CCc5ccccc54)CC3)nc2)c2c(C#N)cnn2c1", "Ratio (KDR/RET)": 14}
{"Compound": "COc1ccc(OC2CCN(c3ccc(-c4cc(C#CC(C)(C)O)cn5ncc(C#N)c45)cn3)CC2)cn1", "Ratio (KDR/RET)": 1.3}
{"Compound": "Cc1ccc(F)cc1C(=O)NC1(C)CC2CN(c3ccc(-c4cc(OCC(C)(C)O)cn5ncc(C#N)c45)cn3)CC2C1 (stereo not drawn)", "Ratio (KDR/RET)": 35}
{"Compound": "COc1ncc(CN2C3CC2CN(c2ccc(-c4cc(OC[C@H]5C[C@@](C)(O)C5)cn5ncc(C#N)c45)cn2)C3)cc1F", "Ratio (KDR/RET)": 20}
{"Compound": "CC1(NC(=O)c2ncccc2Cl)CCN(c2ccc(-c3cc(C#CC4(O)COC4)cn4ncc(C#N)c34)cn2)CC1", "Ratio (KDR/RET)": 185}
{"Compound": "COc1ccc(CN2C3CC2CN(c2ccc(-c4cc(/C=C/C(C)(C)O)cn5ncc(C#N)c45)cn2)C3)cn1", "Ratio (KDR/RET)": 25}

###

- Test Summary: Balb/C mouse pharmacokinetics, oral
- Format: in vivo
- Condition Summary: male, mouse, po; Balb/C mice, p.o., 5 mg/kg, plasma; read-out: Peak time tmax
Reported Property: Tmax (min)

{"Chemical String": "COc1ccc(CN2C3CC2CN(c2ccc(-c4cc(OCC5(C#N)CC5)cn5ncc(C#N)c45)cn2)C3)cn1", "Reported Property": "Tmax", "Value": 30}

###

- Tested on: TT cells (MTC, RET C634W)
- Test Summary: TT cell proliferation (CellTiter-Glo)
- Format: cell-based, human
- Condition Summary: Homo sapiens, TT, 72 h
Reported IC50 values for a set of compounds

{"Chemical String": "COc1ccc(CN2C3CC2CN(c2ccc(-c4cc(/C=C/C(C)(C)O)cn5ncc(C#N)c45)cn2)C3)cn1", "IC50 [nM]": 5.87}
{"Chemical String": "COc1ccc(CN2C3CC2CN(c2ccc(-c4cc(OCC5(C#N)CC5)cn5ncc(C#N)c45)cn2)C3)cn1", "IC50 [nM]": 19}
{"Chemical String": "CC1(NC(=O)c2ncccc2Cl)CCN(c2ccc(-c3cc(C#CC4(O)COC4)cn4ncc(C#N)c34)cn2)CC1", "IC50 [nM]": 18.5}
{"Chemical String": "COc1ncc(CN2C3CC2CN(c2ccc(-c4cc(OC[C@H]5C[C@@](C)(O)C5)cn5ncc(C#N)c45)cn2)C3)cc1F", "IC50 [nM]": 13.9}

###

- Test Summary: Balb/C mouse pharmacokinetics, oral
- Assay type: in vivo
- Condition Summary: male, mouse, po; Balb/C mice, p.o., 5 mg/kg, plasma; read-out: Blood concentration Cmax

{"Chemical String": "COc1ccc(CN2C3CC2CN(c2ccc(-c4cc(OCC5(C#N)CC5)cn5ncc(C#N)c45)cn2)C3)cn1", "Cmax, ng/mL": 3120}

###

- Test Summary: Balb/C mouse pharmacokinetics, oral
- Type: in vivo
- Condition Summary: male, mouse, po; Balb/C mice, p.o., 5 mg/kg, plasma; read-out: Average residence time MRT
Reported Property: MRT (h)

{"Chemical String": "COc1ccc(CN2C3CC2CN(c2ccc(-c4cc(OCC5(C#N)CC5)cn5ncc(C#N)c45)cn2)C3)cn1", "Value": 4.71}

###

- Target Entity: KDR kinase (Homo sapiens)
pIC50: −log10 of the molar value.
Reported Property: pIC50

{"Compound": "Cc1ccc(F)cc1C(=O)NC1(C)CC2CN(c3ccc(-c4cc(OCC(C)(C)O)cn5ncc(C#N)c45)cn3)CC2C1 (stereo not shown)", "Target Entity": "KDR kinase (Homo sapiens)", "Value": 6.91}
{"Compound": "COc1ccc(CN2C3CC2CN(c2ccc(-c4cc(/C=C/C(C)(C)O)cn5ncc(C#N)c45)cn2)C3)cn1", "Target Entity": "KDR kinase (Homo sapiens)", "Value": 8.19}
{"Compound": "CC1(NC(=O)c2ncccc2Cl)CCN(c2ccc(-c3cc(C#CC4(O)COC4)cn4ncc(C#N)c34)cn2)CC1", "Target Entity": "KDR kinase (Homo sapiens)", "Value": 7.33}
{"Compound": "COc1ncc(CN2C3CC2CN(c2ccc(-c4cc(OC[C@H]5C[C@@](C)(O)C5)cn5ncc(C#N)c45)cn2)C3)cc1F", "Target Entity": "KDR kinase (Homo sapiens)", "Value": 8.13}

###

- Target Entity: RET M918T (Homo sapiens, UniProt P07949, M918T)
- Sequence (P07949 29-1114 M918T): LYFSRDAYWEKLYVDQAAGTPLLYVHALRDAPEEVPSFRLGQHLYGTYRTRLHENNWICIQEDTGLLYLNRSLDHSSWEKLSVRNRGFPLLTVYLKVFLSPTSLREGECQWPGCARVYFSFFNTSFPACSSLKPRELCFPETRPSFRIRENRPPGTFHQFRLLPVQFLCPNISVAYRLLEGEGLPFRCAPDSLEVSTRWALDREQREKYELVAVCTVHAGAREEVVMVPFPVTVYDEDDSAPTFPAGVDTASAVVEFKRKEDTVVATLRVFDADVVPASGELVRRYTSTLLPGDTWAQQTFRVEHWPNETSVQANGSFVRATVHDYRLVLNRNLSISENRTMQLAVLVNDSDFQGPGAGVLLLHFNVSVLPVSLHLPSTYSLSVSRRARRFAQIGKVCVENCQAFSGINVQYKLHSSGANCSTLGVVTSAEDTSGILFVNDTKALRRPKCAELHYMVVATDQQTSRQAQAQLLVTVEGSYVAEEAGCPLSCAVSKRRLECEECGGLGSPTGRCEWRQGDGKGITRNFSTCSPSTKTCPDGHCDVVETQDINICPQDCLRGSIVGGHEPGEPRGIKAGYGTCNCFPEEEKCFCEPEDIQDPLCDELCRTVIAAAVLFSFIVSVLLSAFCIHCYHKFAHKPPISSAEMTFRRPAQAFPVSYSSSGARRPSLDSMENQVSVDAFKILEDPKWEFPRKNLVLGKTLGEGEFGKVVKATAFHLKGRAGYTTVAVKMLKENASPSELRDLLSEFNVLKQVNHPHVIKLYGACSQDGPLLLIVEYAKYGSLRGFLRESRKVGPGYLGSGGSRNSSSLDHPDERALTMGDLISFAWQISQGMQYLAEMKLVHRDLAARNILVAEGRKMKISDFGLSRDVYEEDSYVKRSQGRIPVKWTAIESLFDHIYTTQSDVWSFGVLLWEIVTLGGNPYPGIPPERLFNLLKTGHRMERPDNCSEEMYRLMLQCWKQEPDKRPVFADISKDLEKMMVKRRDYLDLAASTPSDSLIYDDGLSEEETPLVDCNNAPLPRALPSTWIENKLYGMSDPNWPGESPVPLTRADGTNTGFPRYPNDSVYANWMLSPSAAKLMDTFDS
- Test Summary: HTRF kinase assay, RET M918T
- Condition Summary: ATP at Km

{"Chemical String": "COc1ccc(CN2C3CC2CN(c2ccc(-c4cc(OCC5(C#N)CC5)cn5ncc(C#N)c45)cn2)C3)cn1", "Target Entity": "RET M918T (Homo sapiens, UniProt P07949, M918T)", "IC50, nM": 0.47}

###

- Test Summary: Balb/C mouse pharmacokinetics, oral
- Type: in vivo
- Condition Summary: male, mouse, po; Balb/C mice, p.o., 5 mg/kg, plasma; read-out: Half-life t1/2 (converted)
- Experimental: The pharmacokinetic behavior of the following compound embodiments, administered orally at a dose of 5 mg/kg in plasma in mice, was studied using Balb/C mice as test animals. Balb/C Mouse 6/embodiment, male, Shanghai Jiesijie Laboratory Animal Co., Ltd, Animal Production License No. (SCXK (Shanghai) 2013-0006 N0.311620400001794). […] The main pharmacokinetic parameters were calculated using WinNonlin 6.1 and the results of the mouse pharmacokinetic experiments were shown in Table 8 below.

{"Chemical String": "COc1ccc(CN2C3CC2CN(c2ccc(-c4cc(OCC5(C#N)CC5)cn5ncc(C#N)c45)cn2)C3)cn1", "half-life / h": 2.66}

###

- Test Summary: Balb/C mouse pharmacokinetics, oral
- Assay type: in vivo
- Condition Summary: male, mouse, po; Balb/C mice, p.o., 5 mg/kg, plasma; read-out: Curve area AUC0-∞

{"Chemical String": "COc1ccc(CN2C3CC2CN(c2ccc(-c4cc(OCC5(C#N)CC5)cn5ncc(C#N)c45)cn2)C3)cn1", "Unit Abbreviation": "ng·h/mL", "AUC(0-inf)": 18900}
